# assay target: human delta-like ligand 3 (DLL3) on SHP77 cells (human) (UniProt Q9NYJ7)
# Sequence (Q9NYJ7 27-618, stated change not applied): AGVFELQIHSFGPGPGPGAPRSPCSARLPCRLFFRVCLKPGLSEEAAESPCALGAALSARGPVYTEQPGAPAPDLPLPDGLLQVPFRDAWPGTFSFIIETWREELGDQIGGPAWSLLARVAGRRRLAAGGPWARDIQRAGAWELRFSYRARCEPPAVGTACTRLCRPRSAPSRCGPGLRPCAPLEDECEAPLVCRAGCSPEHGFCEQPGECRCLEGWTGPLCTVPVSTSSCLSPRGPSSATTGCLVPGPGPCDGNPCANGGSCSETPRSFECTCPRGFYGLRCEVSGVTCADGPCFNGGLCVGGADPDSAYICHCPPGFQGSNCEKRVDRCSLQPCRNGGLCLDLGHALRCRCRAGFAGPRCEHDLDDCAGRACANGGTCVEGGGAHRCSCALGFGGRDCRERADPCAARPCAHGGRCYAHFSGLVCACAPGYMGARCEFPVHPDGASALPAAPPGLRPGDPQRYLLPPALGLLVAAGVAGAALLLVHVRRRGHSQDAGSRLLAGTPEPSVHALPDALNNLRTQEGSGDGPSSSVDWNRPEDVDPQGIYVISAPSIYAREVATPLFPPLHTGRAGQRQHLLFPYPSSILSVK
# protocol description: FACS on SHP77 cells
measurement type: MFI at 0.00128 nM (MFI)
Express it in MFI; write the number only.

Request: Sample Hab015VL5VH6a-hFc (scFv, part only; not given: scFv linker and human IgG1 Fc, V domains shown, not shown: another chain or arm of the molecule; a dimerising Fc or GST; small tags and cut ends) VL: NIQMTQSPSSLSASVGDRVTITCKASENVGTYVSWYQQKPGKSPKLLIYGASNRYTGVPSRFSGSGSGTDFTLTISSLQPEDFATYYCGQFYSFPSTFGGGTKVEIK VH: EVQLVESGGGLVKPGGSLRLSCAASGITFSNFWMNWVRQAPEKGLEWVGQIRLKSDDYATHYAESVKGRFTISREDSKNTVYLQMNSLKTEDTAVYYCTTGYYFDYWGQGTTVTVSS — what was its MFI at 0.00128 nM?
Result: 101

Request: Item Hab015VL5VH1a-hFc (scFv, part only; not given: scFv linker and human IgG1 Fc, V domains shown, not shown: another chain or arm of the molecule; a dimerising Fc or GST; small tags and cut ends) VL: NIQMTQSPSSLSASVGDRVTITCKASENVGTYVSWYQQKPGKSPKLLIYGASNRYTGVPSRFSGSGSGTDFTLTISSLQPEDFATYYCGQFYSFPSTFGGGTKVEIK VH: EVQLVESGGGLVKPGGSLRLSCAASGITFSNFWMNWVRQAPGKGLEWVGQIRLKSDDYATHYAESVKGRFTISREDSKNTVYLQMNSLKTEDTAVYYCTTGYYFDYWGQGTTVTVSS has what recorded MFI at 0.00128 nM?
Result: 102

Request: Find the recorded MFI at 0.00128 nM belonging to Hab015VL5VH5a-hFc (scFv, part only; not given: scFv linker and human IgG1 Fc, V domains shown, not shown: another chain or arm of the molecule; a dimerising Fc or GST; small tags and cut ends) VL: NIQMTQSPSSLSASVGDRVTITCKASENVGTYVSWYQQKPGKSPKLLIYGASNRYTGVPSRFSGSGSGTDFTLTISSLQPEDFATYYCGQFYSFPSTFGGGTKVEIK VH: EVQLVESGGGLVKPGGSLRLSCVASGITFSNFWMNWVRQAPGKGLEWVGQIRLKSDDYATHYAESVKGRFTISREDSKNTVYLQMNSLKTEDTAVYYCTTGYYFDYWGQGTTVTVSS and report it.
Result: 106
